// data source = patent US8889688B2

System: erythrocytic stages of P. falciparum NF54
Experiment: Plasmodium falciparum in vitro assay, [3H] hypoxanthine incorporation
Assay type: cell-based
Settings: Plasmodium falciparum, Erythrocyte, 72 h; P. falciparum NF54 in human red blood cells; screening medium with human serum (50% final concentration); 48 h + 24 h incubation; read-out: IC50 on NF54 (with 50% Serum)
endpoint: IC50

CC(=O)N1CCN(c2ccc(CN(C(=O)C=Cc3ccc(OC(C)C)cc3)[C@@H](Cc3ccccc3)C(=O)N3CCN(Cc4ccc(S(C)(=O)=O)cc4)CC3)cc2)CC1 2.8 nM
CC(=O)N1CCN(c2ccc(CN(C(=O)C=Cc3ccc(S(C)(=O)=O)cc3)[C@@H](Cc3ccccc3)C(=O)N3CCN(Cc4ccc(C#N)cc4)CC3)cc2)CC1 33 nM
CC(=O)N1CCN(c2ccc(CN(C(=O)C=Cc3ccc(OC(C)C)cc3)[C@@H](Cc3ccccc3)C(=O)N3CCN(Cc4ccc(C#N)cc4)CC3)cc2)CC1 3.7 nM
CC(=O)Nc1ccc(C=CC(=O)N(Cc2ccc(N3CCN(C(C)=O)CC3)cc2)[C@@H](Cc2ccccc2)C(=O)N2CCN(Cc3ccc(C#N)cc3)CC2)cc1 12.9 nM
CC(=O)N1CCN(c2ccc(CN(C(=O)C=Cc3ccc(C(C)C)cc3)[C@@H](Cc3ccccc3)C(=O)N3CCN(Cc4ccc(C#N)cc4)CC3)cc2)CC1 4.4 nM
